Protocol details: Cmax in dog at 2 mg/kg, po administered as single dose
Type: ADME, organism-based, Canis lupus familiaris
Parameters: dose 2 mg/kg, route oral
Conditions: in vivo
Endpoint: Cmax (ng/mL)

Molecule smiles	Measured value
NC(=O)c1noc([C@H](CCCC2CCCCC2)CC(=O)NO)n1	110

---

Protocol details: Elimination half life in dog at 0.5 mg/kg, iv administered as single dose
Format: ADME, organism-based, Canis lupus familiaris
Design: dose 0.5 mg/kg, route intravenous
Conditions: in vivo, read-out: beta t1/2 (converted)

Molecule smiles	Result unit	half-life
NC(=O)c1noc([C@H](CCCC2CCCCC2)CC(=O)NO)n1	h	1.5
